Hey, just so you know, these numbers are from patent US6620811B2.

tested-system: human adenosine A2A receptor (Homo sapiens, UniProt P29274)
Construct: expressed in transfected cells; host or cells: CHO cells, semliki forest virus expression system; membrane preparation
Sequence (P29274 whole entry): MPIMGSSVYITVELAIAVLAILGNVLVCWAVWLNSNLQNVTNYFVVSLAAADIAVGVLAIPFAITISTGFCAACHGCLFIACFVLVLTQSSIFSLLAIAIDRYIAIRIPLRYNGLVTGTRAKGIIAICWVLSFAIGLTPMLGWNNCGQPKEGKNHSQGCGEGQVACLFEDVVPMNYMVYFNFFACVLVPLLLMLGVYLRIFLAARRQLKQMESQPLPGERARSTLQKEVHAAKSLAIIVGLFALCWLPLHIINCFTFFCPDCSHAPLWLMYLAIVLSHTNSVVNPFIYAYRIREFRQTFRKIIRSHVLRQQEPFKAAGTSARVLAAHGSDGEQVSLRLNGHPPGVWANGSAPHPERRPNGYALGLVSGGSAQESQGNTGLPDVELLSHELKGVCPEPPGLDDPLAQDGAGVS
experimental-protocol: Human adenosine A2A receptor [3H]-SCH-583261 binding assay (SPA, CHO cell membranes)
condition-details: [3H]-SCH-583261 1 nM; membranes of CHO cells expressing the recombinant receptor; Ki by Cheng-Prussoff equation; read-out: hA2 (pKi) (converted)
Please note: Ki exactly at 2 nM is FALSE. Only values below 2 nM get TRUE.

Lab note: confirm whether the reported Ki for this compound is below 2 nM, equality not counting. compound: CCOC1CN(c2cc(C(=O)Nc3nc4c(OC)ccc(N5CCOCC5)c4s3)ccn2)C1 [Example 76] TRUE

Threshold test, Ki < 2 nM: COc1ccc(N2CCOCC2)c2sc(NC(=O)c3ccnc(C4CCCCC4)c3)nc12 [Example 24] FALSE

Identify whether the compound COc1ccc(N2CCOCC2)c2sc(NC(=O)c3ccnc(N4CC(O)C4)c3)nc12 [Example 74] records Ki below 2 nM. TRUE

Is 2 nM strictly greater than the compound's reported Ki? compound: COc1ccc(N2CCOCC2)c2sc(NC(=O)c3ccnc(OCCN(C)C)c3)nc12 [Example 86] TRUE

Does COc1ccc(N2CCOCC2)c2sc(NC(=O)c3ccnc(NCCc4ccccn4)c3)nc12 [Example 8] have Ki strictly under 2 nM? TRUE

Does the reported Ki of the following compound sit strictly below 2 nM? COc1ccc(N2CCCCC2)c2sc(NC(=O)c3ccnc(N4CCN(C)CC4)c3)nc12 [Example 100] TRUE

Hi there! Is Ki for COCCNCc1cc(C(=O)Nc2nc3c(OC)ccc(N4CCOCC4)c3s2)ccn1 [Example 47] below 2 nM, do you know? FALSE
